Source listed as ChEMBL document CHEMBL1158317.

# System: IGR-1
# test-description: Antiproliferative activity against human IGR-1 cells after 72 hrs by MTT assay
# Format: functional, cell-based
# conditions-used: IGR-1, 72 h
assay-endpoint: IC50 (mg/L)
Answers are plain numbers, in mg/L.

Some molecules with known IC50 results, for comparison:
C[C@@H]1CC[C@@]2(OC1)O[C@H]1C[C@H]3[C@@H]4C[C@@H](O)[C@H]5C[C@@H](O)[C@@H](O)C[C@]5(C)[C@H]4CC[C@]3(C)[C@H]1[C@@H]2C    184
C[C@@H]1CC[C@@]2(OC1)O[C@H]1C[C@H]3[C@@H]4C[C@@H](O)[C@H]5C[C@@H](O)C(=O)C[C@]5(C)[C@H]4CC[C@]3(C)[C@H]1[C@@H]2C    45
Sc1ncnc2nc[nH]c12 [MERCAPTOPURINE ANHYDROUS]    1.1

Kindly consider the entry below.
# IC50 lookup, item `C[C@@H]1CC[C@@]2(OC1)O[C@H]1C[C@H]3[C@@H]4C[C@@H](O)[C@H]5C[C@@H](O)[C@H](O)C[C@]5(C)[C@H]4CC[C@]3(C)[C@H]1[C@@H]2C`
264
